Assay: in vitro
Format: cell-based
Conditions: human, cem cells, CC50 (50% cytostatic concentration), Table 2B; CEM cell proliferation; averages of 2 to 3 independent experiments
assay.readout: log10(CC50) (log10 of the value in µg/mL)
A difference of one corresponds to tenfold CC50; all values are log10 with CC50 in µg/mL.

molecule: C=CCOc1cc(NC(=S)c2sccc2C)ccc1C#N
assay.readout: log10(CC50)
experimental.value: 0.56
--
molecule: Cc1sccc1C(=O)Nc1ccc(Cl)c(C=NOC(C)(C)C)c1
assay.readout: log10(CC50)
experimental.value: 1.15

Lab note: each molecule below needs its log10(CC50) filled in.
1. Cc1sccc1C(=S)Nc1ccc(Cl)c(C(=O)OC(C(C)C)C(C)C)c1
2. CC=CCOc1cc(NC(=O)c2ccsc2C)ccc1Cl
3. COc1ccccc1C(=S)Nc1ccc(Cl)c(C(=O)OC(C)C)c1
4. Cc1c(C(=O)Nc2ccc(Cl)c(C=NOC(C)(C)C)c2)ccn1C

1. 0.78
2. 1.94
3. 1.43
4. 0.74

Working through the 7 molecules below one at a time, give log10(CC50) for each.
1. O=C(OC1CCCCC1)c1cc(NC(=S)c2ccccc2F)ccc1Cl
2. Cc1sccc1C(=S)Nc1ccc(Cl)c(OCC2CCCC2)c1
3. C=C(C)COC(=O)c1cc(NC(=O)c2ccoc2C)ccc1Cl
4. CC1=C(C(=S)Nc2ccc(Cl)c(C=NOC(C)(C)C)c2)CCO1
5. Cc1occc1C(=O)Nc1ccc(Cl)c(C(=O)OC(C)C2CC2)c1 (stereo not drawn)
6. O=C(OC1CCCCC1)c1cc(NC(=S)c2ccccc2)ccc1Cl
7. CC(C)OC(=O)c1cc(NC(=S)c2ccsc2)ccc1Cl

1: 1.28; 2: 0.63; 3: 0.57; 4: 1.04; 5: 1.64; 6: 0.72; 7: 0.63

Below are 7 molecules. Give each one its log10(CC50).
1. COc1ccc(NC(=O)c2ccoc2C)cc1CC(=O)OC(C)C
2. C=CCOC(=O)c1cc(NC(=S)c2ccoc2C)ccc1Cl
3. Cc1occc1C(=O)Nc1ccc(Cl)c(OCCC(C)C)c1
4. CCC1=C(C(=O)Nc2ccc(Cl)c(C=NOC(C)(C)C)c2)SCCO1
5. Cc1ccsc1C(=S)Nc1ccc(Cl)c(C=NOC(C)C)c1
6. Cc1ccsc1C(=S)Nc1ccc(Cl)c(C(=O)OC(C)C)c1
7. C=C(C)COC(=O)c1cc(NC(=S)c2ccoc2C)ccc1Cl

1.72
1.04
0.70
1.06
1.11
0.72
0.83

----------
Tested on: HIV-1/106-Ala
Assay: Inhibition of HIV-1 induced syncytium formation in CEM cells, RT mutant 106-Ala
Assay type: cell-based
Conditions: Human immunodeficiency virus 1, CCRF-CEM, 96 h, Table 2B, day 4, averages of 2 to 3 independent experiments, read-out: Antiviral Activity of Comparative Compounds EC50, 106-Ala
Please go through the items and note down their EC50.
Numbers only, in µg/mL.

Record excerpt, results attached:
chem.smiles: Cc1ccccc1C(=S)Nc1ccc(Cl)c(C(=O)OC2CCCCC2)c1
experimental.value: 3

chem.smiles: CC1=C(C(=O)Nc2ccc(Cl)c(C=NOC(C)(C)C)c2)CCCO1
experimental.value: 0.5

chem.smiles: CC(C)ON=Cc1cc(NC(=S)c2ccccc2)ccc1Cl
experimental.value: 0.75

chem.smiles: Cc1sccc1C(=S)Nc1ccc(Cl)c(OCCC(C)C)c1
experimental.value: 0.08

chem.smiles: Cc1ccsc1C(=S)Nc1ccc(Cl)c(C(=O)OC(C(C)C)C(C)C)c1
experimental.value: 0.2

chem.smiles: COc1ccccc1C(=S)Nc1ccc(Cl)c(C(=O)OC(C)C)c1
experimental.value: 6

chem.smiles: Cc1occc1C(=S)Nc1ccc(Cl)c(C(=O)OC(C)C)c1
experimental.value: 0.6

Switching to the query record.
Form: compound = `Cc1sccc1C(=S)Nc1ccc(Cl)c(SCC(=O)OC(C)(C)C)c1` ; EC50 = 0.15
